# Test system: L1210 leukemia ip in BDF1 mice, survival T/C
# Method: NCI In Vivo Anticancer Drug Screen. Data for tumor model L1210 Leukemia (intraperitoneal) in B6D2F1 (BDF1) mice
# Condition: endpoint: mean survival time; dose: 400.0 mg/kg/injection; schedule: Q01DX001 (ip); vehicle: Klucel (hydroxypropylcellulose) (HPC); higher = longer survival
Inconclusive results and toxic doses are left out.
What T/C was measured for each of the following?

Use these answered entries as a reference point.
O=C(O)c1ccccc1C(=O)c1ccc(-c2ccccc2)cc1 :: 100 % of control
CC1CCc2cccc(NC(=O)NCCCl)c21 (stereo not drawn) :: 96 % of control
CC1(C)N=C(N)N=C(N)N1c1ccc(CC(CCc2ccccc2)C(=O)Nc2ccc(S(=O)(=O)F)cc2)cc1 (stereo not drawn) :: 90 % of control

Go through the list and state T/C for each entry.
1. c1ccc2cc(C3OCC4(CCC4)CO3)ccc2c1
2. COc1cc(CCCC(=O)O)c(OC)c(C)c1C
3. Cc1ccc(S(=O)(=O)NCCCc2c(C)nc(N)n(Cc3cccc([N+](=O)[O-])c3)c2=O)cc1
4. N#Cc1cccnc1Cl

1: 104 % of control; 2: 95 % of control; 3: 103 % of control; 4: 100 % of control

Provide reported T/C for each item, in the same order as listed.
1. CC(OC(=O)c1ccc([N+](=O)[O-])cc1)C(C)OC(=O)c1ccc([N+](=O)[O-])cc1 (stereo not drawn)
2. O=C1NCN(c2ccccc2)C12CCN(Cc1nc3cc([N+](=O)[O-])ccc3n1-c1ccccc1)CC2
3. Cc1ccc(S(=O)(=O)OCC2C3CCC4C3C(C)(C)CCCC24C)cc1 (stereo not drawn)
4. COC(OC)c1nc(N)[nH]c(=O)c1Cc1ccc(Br)cc1
5. CCCCCCCCCCCCCCCC(=O)c1ccccc1
6. CN(C)c1ccc(/C=C(\C#N)c2nc3ccccc3[nH]2)cc1

1: 97 % of control; 2: 99 % of control; 3: 90 % of control; 4: 108 % of control; 5: 88 % of control; 6: 96 % of control
